Record form. Attribute: hemolysis at 1 h, 1000 ug/ml. Fill in for each entry.
# PROCEDURE_TEXT: Hemolytic activity in sheep RBC at 1000 ug/ml measured after 1 hr relative to control
# Type: ADME, cell-based, Ovis aries, Erythrocyte
# COND: sheep red blood cells (erythrocytes), read-out: Activity
Give a bare numeral; the unit % is implied.

Reported hemolysis at 1 h, 1000 ug/ml for COc1ccc(CN(CCN(Cc2ccc(OC)cc2)Cc2cccc(C(=O)O)n2)Cc2cccc(C(=O)O)n2)cc1 was 2.94

Consider O=C(O)c1cccc(CNCCNCc2cccc(C(=O)O)n2)n1 . Its measured hemolysis at 1 h, 1000 ug/ml is 0.1
